# measured.target: VMAT2 (Rattus norvegicus, UniProt Q01827)
# Sequence (Q01827 whole entry): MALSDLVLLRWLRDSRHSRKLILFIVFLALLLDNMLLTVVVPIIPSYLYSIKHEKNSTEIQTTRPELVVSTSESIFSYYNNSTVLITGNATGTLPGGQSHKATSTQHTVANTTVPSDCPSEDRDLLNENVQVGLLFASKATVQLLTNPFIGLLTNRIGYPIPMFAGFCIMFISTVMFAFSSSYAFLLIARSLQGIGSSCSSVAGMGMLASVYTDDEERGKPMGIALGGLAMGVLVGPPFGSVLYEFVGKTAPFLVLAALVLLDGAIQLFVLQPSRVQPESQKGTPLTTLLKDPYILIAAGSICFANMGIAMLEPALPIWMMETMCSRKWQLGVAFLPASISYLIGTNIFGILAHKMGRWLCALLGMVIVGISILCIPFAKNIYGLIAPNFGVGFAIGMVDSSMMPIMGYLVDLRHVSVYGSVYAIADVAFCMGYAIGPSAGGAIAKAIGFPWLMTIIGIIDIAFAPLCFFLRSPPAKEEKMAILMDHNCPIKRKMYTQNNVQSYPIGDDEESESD
# procedure.text: [3H]5-HT release from rat brain synaptic vesicles via VMAT2
# Type: biochemical
endpoint.label: pEC50
# pEC50 = -log10(concentration in molar units)

Prompt line: Report pEC50 for NCCc1c[nH]c2ccc(O)cc12 [serotonin (5-HT), serotonin, reference compound]
Response line: 6.23

====

IC50 for assorted compounds
# measured.target: rat SERT (rSERT) (Rattus norvegicus)
# procedure.text: [3H]5-HT uptake inhibition in rat brain synaptosomes
# Type: biochemical
# condition.set: read-out: Uptake Inhibition at SERT IC50, [3H]5-HT (rSERT); rat brain synaptosomes
Please state the figure in nM; there is no need to write the unit.

[
  {
    "compound": "CCC1CC2CC3c4c(c5cc(O)ccc5n4C)CCN(C2)C13 (stereo not shown) [N-methyl-noribogaine]",
    "endpoint.label": "IC50",
    "measured.number": 14
  },
  {
    "compound": "CC[C@H]1C[C@@H]2C[C@H]3c4[nH]c5ccc(C#N)cc5c4CCN(C2)[C@@H]13 [5-cyano-ibogamine]",
    "endpoint.label": "IC50",
    "measured.number": 65
  },
  {
    "compound": "CC[C@H]1C[C@H]2C[C@H]3c4[nH]c5ccc(O)cc5c4CCN(C2)[C@@H]13 [noribogaine]",
    "endpoint.label": "IC50",
    "measured.number": 326
  }
]

Next, consider the following compound.
Prompt line: Identify measured IC50 associated with CCC1CC2CC3c4c(c5cc(O)ccc5n4CC)CCN(C2)C13 (stereo not shown) [N-ethyl-noribogaine]
Response line: 80

====

# measured.target: rat SERT (rSERT) (Rattus norvegicus, UniProt P31652)
# Sequence (P31652 whole entry): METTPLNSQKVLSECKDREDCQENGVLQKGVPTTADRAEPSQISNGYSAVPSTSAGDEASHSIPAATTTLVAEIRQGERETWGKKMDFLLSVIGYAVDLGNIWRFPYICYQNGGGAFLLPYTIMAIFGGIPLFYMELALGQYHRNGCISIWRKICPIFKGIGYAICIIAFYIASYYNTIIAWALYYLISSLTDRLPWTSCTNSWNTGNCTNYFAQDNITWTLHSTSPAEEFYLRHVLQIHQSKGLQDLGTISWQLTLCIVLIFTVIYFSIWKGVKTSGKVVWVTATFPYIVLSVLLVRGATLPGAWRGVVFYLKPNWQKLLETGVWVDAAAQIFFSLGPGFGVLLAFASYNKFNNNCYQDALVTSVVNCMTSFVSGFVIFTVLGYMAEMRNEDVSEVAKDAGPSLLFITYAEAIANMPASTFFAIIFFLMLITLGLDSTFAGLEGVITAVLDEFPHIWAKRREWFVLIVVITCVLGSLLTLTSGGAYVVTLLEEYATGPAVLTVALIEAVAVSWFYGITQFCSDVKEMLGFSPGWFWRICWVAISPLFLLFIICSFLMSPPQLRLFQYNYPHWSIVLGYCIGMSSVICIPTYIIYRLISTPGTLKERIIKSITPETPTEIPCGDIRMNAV
# procedure.text: [3H]5-HT uptake inhibition in rat brain synaptosomes
# Assay type: biochemical
# condition.set: [3H]5-HT Uptake Inhibition IC50 ± SD, SERT, rat brain synaptosomes, n = 3
endpoint.label: pIC50
// field semantics: pIC50 = negative decimal log of concentration (mol/L)

Prompt line: Provide only the value of recorded pIC50 for CC[C@H]1C[C@@H]2C[C@H]3c4[nH]c5ccccc5c4CCN(C2)[C@@H]13 [ibogamine]
Response line: 6.26

====

# measured.target: hVMAT2 (Homo sapiens)
# Sequence (Q05940 whole entry): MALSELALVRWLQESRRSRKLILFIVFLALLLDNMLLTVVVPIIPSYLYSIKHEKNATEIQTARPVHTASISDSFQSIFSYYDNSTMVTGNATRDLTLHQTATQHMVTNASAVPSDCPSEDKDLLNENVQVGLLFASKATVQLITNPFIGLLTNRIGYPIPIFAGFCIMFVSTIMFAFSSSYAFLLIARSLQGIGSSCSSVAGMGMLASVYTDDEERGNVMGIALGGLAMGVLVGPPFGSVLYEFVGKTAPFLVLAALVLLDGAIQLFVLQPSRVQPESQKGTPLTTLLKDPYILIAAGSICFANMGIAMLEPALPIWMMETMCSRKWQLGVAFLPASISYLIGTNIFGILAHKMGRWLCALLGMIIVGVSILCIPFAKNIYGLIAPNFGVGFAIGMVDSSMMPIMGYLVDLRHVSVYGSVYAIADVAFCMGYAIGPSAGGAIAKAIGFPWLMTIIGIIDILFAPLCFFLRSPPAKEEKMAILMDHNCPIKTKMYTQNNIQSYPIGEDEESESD
# procedure.text: FFN206 fluorescent substrate uptake inhibition in hVMAT2-HEK cells
# Type: cell-based
endpoint.label: IC50 (µM)
Please give a number only; it is taken to be in µM.

Prompt line: Using known records, supply IC50 for CC[C@H]1C[C@@H]2C[C@H]3c4[nH]c5ccccc5c4CCN(C2)[C@@H]13
Response line: 3.01

====

# measured.target: VMAT2 (Rattus norvegicus, UniProt Q01827)
# procedure.text: [3H]5-HT release from rat brain synaptic vesicles via VMAT2
# Assay type: biochemical
# condition.set: rat brain vesicular fraction; 5-HT control set as Emax = 100%
Recorded [3H]5-HT Release % Emax via VMAT2 by entry
Numbers only here, please. The scale is %.

Example results:
[
  {
    "compound": "CCC1CC2CC3c4c(c5cc(O)ccc5n4CC)CCN(C2)C13 (stereo not shown)",
    "endpoint.label": "[3H]5-HT Release % Emax via VMAT2",
    "measured.number": 31
  },
  {
    "compound": "CCC1CC2CC3c4c(c5cc(O)ccc5n4C)CCN(C2)C13 (stereo not shown)",
    "endpoint.label": "[3H]5-HT Release % Emax via VMAT2",
    "measured.number": 32
  }
]

Query compound follows.
Prompt line: Using VMAT2 (Rattus norvegicus, UniProt Q01827) as the test system, report measured [3H]5-HT Release % Emax via VMAT2 of CC[C@H]1C[C@H]2C[C@H]3c4[nH]c5ccc(O)cc5c4CCN(C2)[C@@H]13 .
Response line: 50
